Data origin: patent US20250011468A1

target: human plasma-derived FIXa (Haematologic Technologies Inc) (human, UniProt P00740 47-191; P00740 227-461); experiment: cell-based or functional assay
Sequence (P00740 47-191, chain 1 of 2): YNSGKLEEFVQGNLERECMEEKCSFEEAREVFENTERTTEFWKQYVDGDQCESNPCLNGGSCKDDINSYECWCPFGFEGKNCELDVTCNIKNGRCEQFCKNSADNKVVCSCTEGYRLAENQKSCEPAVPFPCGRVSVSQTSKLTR
Sequence (P00740 227-461, chain 2 of 2): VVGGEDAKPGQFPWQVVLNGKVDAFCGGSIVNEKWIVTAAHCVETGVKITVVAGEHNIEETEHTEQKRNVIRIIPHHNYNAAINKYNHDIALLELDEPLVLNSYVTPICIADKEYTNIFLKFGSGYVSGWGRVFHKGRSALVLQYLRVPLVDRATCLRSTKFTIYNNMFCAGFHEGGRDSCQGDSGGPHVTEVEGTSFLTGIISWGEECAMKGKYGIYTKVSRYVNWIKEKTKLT
reported_property: Peak stimulatory activity relative to 224F3

- binder: "mAb1-4861 (antibody, V domains shown) VH: EVQLVESGGGLVQPGRSLKLSCAASGFTFDDYAMHWVRQVPGKGLEWVSGISWNGDNIGYVDSVKGRFTISRDNAKNSLYLQLNSLRAEDTALYYCVKSYGSGSFYNAFDSWGQGTLVTVSS VL: DIQMTQSPSTLSASAGDRVTITCRASQSISSWLAWYQQKPGKAPKFLIYKASRLERGVPSRFSGSGSGTEFSLTISSLQPDDFATYYCLEYSSYIRTFGQGTKVEIK"
  result: "21.7 fold relative to 224F3"

Request: Quickly give me recorded Peak stimulatory activity relative to 224F3 for mAb1-4707 (antibody, V domains shown) VH: EVQLVESGGGLVQPGRSLRLSCAASGFTFGDYAMHWVRQAPGKGLEWVSGISWVSGSIGYARSVKGRFTISRDNAKNSLYLQMNSLRAEDTALYYCAKGQYDEDAGMDVWGQGTTVTVSS VL: DIQMTQSPSSLSASVGDRVTITCRASQSIRSYLNWYQQKPGKAPKLLIYAASSLQSGVPSRFSGSGSGTDFTLTISSLQPEDFATYYCQQGYPTWTFGGGTKVEIK
Result: 35.9 fold relative to 224F3
